Target: SARS-COV-2 RBD-MMH (SARS-CoV-2)
Experiment: SPR 37C
measurement_type: t½ Ratio of pH 7.4 to pH 5.0

Solved entries (count: 3):
binder: mAb15163 (antibody, V domains shown) VH: EVQLVETGGGLIQPGESLRLSCAASGFIVSTNYMNWVRQAPGKGLEWVSVIYRGGSTYYADSVKGRFTISRDNSKNTLFLQMNSLRAEDTAVYYCARGHEDFDYDTPASGAFDIWGQGTMVTVSS VL: QSALTQPPSASGSPGQSVTISCTGTSSDVGGHNYVSWYQQHPGKAPKVMIYEVSKRPSGVPDRFSGSKSGNTASLTVSGLQAEDEADYYCSSYAGSNKFVFGTGTKVTVLG
t½ Ratio of pH 7.4 to pH 5.0: 7.6

binder: mAb15170 (antibody, V domains shown) VH: EVQLVESGGGLVQPGGSLRLSCAATGITVSSNYMSWVRQAPGKGLEWVSLIYSGGSTFYADSVKGRFTISRHNSKNTLYLQMSSLRAEDTAVYYCARDLVDFGMDVWGQGTTVTVSS VL: DIQLTQSPSSLSASVGDRVTITCRASQGISNYLAWYQQKPGKAPKLLIYAASTLQSGVPSRFSGSGSGTDFTLTISSLQPEDFGTYYCQQLNSDSPTFGQGTKVEIKR
t½ Ratio of pH 7.4 to pH 5.0: 0.6

binder: mAb15165 (antibody, V domains shown) VH: EVQLVESGGGLVQPGGSLRLSCAASGFTVSSNYMSWVRQAPGKGLEWVSAIYSGDSTYYADSVKGRFTISKDNSKNTLYLQMNSLRGEDTAVYYCARLGGALQAYDGAFDYWGQGTLATVSS VL: QSALTQPASVSGSPGQSITISCTGTSSDFGSYNLVSWYQQHPGKAPKLMIYEGNKRPSGVSIRFSGSKSGNTASLTISGLQAEDEADYYCSSYAGSSTWVFGGGTKLTVLG
t½ Ratio of pH 7.4 to pH 5.0: 0.6

Record t½ Ratio of pH 7.4 to pH 5.0 per entry; entries follow.
1. mAb15164 (antibody, V domains shown) VH: EVQLVESGGGLVQPGGSLRLSCAASGFAVSSNYMTWVRQAPGKGLEWVATIYSGDSTYYADSVKGRFTISRHNSKNTLSLQMNSLRADDTAIYYCARLSGVLSGTYNGAFDIWGQGTMVTVSS VL: QSALTQPASVSGSPGQSITISCTGTSSDFGNYNIVSWYQQHPGQAPKVMIYEGNKRPSGVSNRFSGSKSGHTASLTISGLQAEDEADYYCSSYAGSSTWVFGGGTKLTVLG
2. mAb15162 (antibody, V domains shown) VH: EVQLVETGGGLIQPGGSLRLSCAASEFIVSRNYMSWVRQAPGKGLEWVSLIYSGGSTYYADSVKGRFTISRDNSKNILYLQMNSLRAEDTAVYYCARDRGGISDYWGQGTLVTVSS VL: DIQMTQSPSSLSASVGDRVTITCQASQDINKYLNWFQQKPGKAPKLLIYDASNLETGVPSRFSGSGSGTDFTFTISSLQPEDIATYYCQQYDNLPRTFGQGTKLEIKR

[0.9, 1.8]

Record t½ Ratio of pH 7.4 to pH 5.0 per entry; entries follow.
1. mAb15160 (antibody, V domains shown) VH: EVQLVESGGGLVQPGGSLRLSCSASGFTFSRYAMYWVRQAPGKGLEYVSAISSDGGSTYDADSVKGRFTISRANSKNTLYLQMSSLRAEDTAVYYCVKGLRELLYYYYGMDVWGQGTTVTVSS VL: DIQMTQSPSSLSASVGDRVTITCRAGQSISSFLNWYQQKPGKAPKLLIYAASSLQSGVPSRFSGSGSGTDFTLTISSLQPEDFATYYCQQSYITPFTFGPGTKVDIKR
2. mAb15159 (antibody, V domains shown) VH: EVQLVESGGGLVQPGGSLRLSCAASGITVSSNYMTWVRQAPGKGLEWVSLIYSGGSTFYADSVRGRFTISRDNSKNTLYLQMNSLRAEDTAVYYCARDLVVYGMDVWGQGTTVTVSS VL: DIQLTQSPSSLSASVGDRVTITCRASQGISSYLAWYQQKPGKAPKLLIYAASTLQSGVPSRFSGSGSGTDFTLTISSLQPEDFATYYCQHLNSDPHTFGQGTKLEIKR
3. mAb15150 (antibody, V domains shown) VH: EVQLVETGGGLIQPGGSLRLSCAAPGFIVSSNYMSWVRQAPGKGLEWVSLLYPGGSTYYADSVKGRFTISRDNSKNTLYLQMNSLRADDTAVYYCARVLPIVEDHFDYWGQGTLVTVSS VL: DIQLTQSPSFLSASVGDRVTITCRASQGMSSYLAWYQKKPGKAPKLLIYGATILQSGVPSRFSGSGSGTEFTLTISSLQPEDFATYYCQQLNSDPLYMYTFGQGTKLEIKR
4. mAb15158 (antibody, V domains shown) VH: EVQLVESGGGLVQPGGSLRLSCAASGFSFSSNWMSWVRQAPGKGLEWVGNINQDGSEKYYVDSVEGRFTISRDNAKKSLYLQMNSLRAEDTAVYYCARDLGVLWFGDFVDWGQGALVTVSS VL: DIQMTQSPSSLSASVGDRVTITCRASQAISNSLAWYQQKPGKAPKLLLYAASTLESGVPSRFSGSGSGTDYTLTISSLQPEDFATYYCLQYYGSPRTFGQGTKVEIKR

1: 1; 2: 1.9; 3: 0.1; 4: 0.3

Entry source: patent US20260069689A1
